Each entry below lists one item and its recorded kcat value.
Substrate: O=P(O)(O)OC[C@H](O)CO
Test: coupled MDCC-PBP Pi-biosensor fluorescence assay in lipid cubic phase (monoolein)
Format: biochemical, Aquifex aeolicus
Details: co-substrate 3.3-5.2 mol% 16:0-P, pH 8.0, 30 °C, no technical replicates
Write down the value, and be sure its unit follows.

aaPlsY (Aquifex aeolicus VF5; R45A) (protein, full length, 192 residues, monomer, codon-optimised gene, E. coli BL21(DE3); assays: C-terminal His8 tag (p3EC); crystals: C-terminal His-eGFP removed by 3C protease; DDM-purified, reconstituted in lipid cubic phase) MKALFLVIFAYLLGSITFGEVIAKLKGVDLRNVGSGNVGATNVTAALGKKYGVLVFFLDFLKGFIPALIAVKSFGIDSWVLTFTGLASVLGHMYPVFFGFKGGKGVATALGVVFAVSPSVALFSFLVWLGIFLWKRYVSLASITATISAFLFLFVAGYPVNVLFMAIVIGALIIYRHRENINRLLTGREHRF
0.15 s⁻¹
aaPlsY (Aquifex aeolicus VF5; N180A) (protein, full length, 192 residues, monomer, codon-optimised gene, E. coli BL21(DE3); assays: C-terminal His8 tag (p3EC); crystals: C-terminal His-eGFP removed by 3C protease; DDM-purified, reconstituted in lipid cubic phase) MKALFLVIFAYLLGSITFGEVIAKLKGVDLRNVGSGNVGATNVTRALGKKYGVLVFFLDFLKGFIPALIAVKSFGIDSWVLTFTGLASVLGHMYPVFFGFKGGKGVATALGVVFAVSPSVALFSFLVWLGIFLWKRYVSLASITATISAFLFLFVAGYPVNVLFMAIVIGALIIYRHREAINRLLTGREHRF
0.62 s⁻¹

Below: the item to evaluate.
Which kcat reading was recorded for the protein aaPlsY (Aquifex aeolicus VF5; H92A) (protein, full length, 192 residues, monomer, codon-optimised gene, E. coli BL21(DE3); assays: C-terminal His8 tag (p3EC); crystals: C-terminal His-eGFP removed by 3C protease; DDM-purified, reconstituted in lipid cubic phase) MKALFLVIFAYLLGSITFGEVIAKLKGVDLRNVGSGNVGATNVTRALGKKYGVLVFFLDFLKGFIPALIAVKSFGIDSWVLTFTGLASVLGAMYPVFFGFKGGKGVATALGVVFAVSPSVALFSFLVWLGIFLWKRYVSLASITATISAFLFLFVAGYPVNVLFMAIVIGALIIYRHRENINRLLTGREHRF ?
2.37 s⁻¹
